measurement notes: Cytotoxicity against human MCF-10A cells assessed as cell growth inhibition at 25 uM incubated for 72 hrs by MTT assay relative to control
Format: toxicity, cell-based
Assign class by inhibition at 72 h, 25 µM: not lower than 80% means Satisfied; lower than 80% means Not satisfied.

[[record]]
compound = "N#Cc1cccc(C2NC(=O)c3ccccc3N2)c1 (configuration not stated)"
discrete_label = "Not satisfied"

[[record]]
compound = "Cc1ccc(C2NC(=O)c3ccccc3N2)cc1 (configuration not stated)"
discrete_label = "Satisfied"

[[record]]
compound = "O=C1NC(c2ccc([N+](=O)[O-])cc2)Nc2ccccc21 (configuration not stated)"
discrete_label = "Not satisfied"

[[record]]
compound = "CCCC/C=C/c1nc2ccccc2c(=O)[nH]1"
discrete_label = "Not satisfied"

[[record]]
compound = "O=c1[nH]c(/C=C/c2ccccc2)nc2ccccc12"
discrete_label = "Satisfied"

[[record]]
compound = "COc1cc2c(c(OC)c1OC)-c1ccc(OC)c(=O)cc1[C@@H](NC(C)=O)CC2"
discrete_label = "Not satisfied"

[[record]]
compound = "O=C1NC(c2cccc(C(F)(F)F)c2)Nc2ccccc21 (configuration not stated)"
discrete_label = "Satisfied"

[[record]]
compound = "O=C1NC(c2ccccc2[N+](=O)[O-])Nc2ccccc21 (configuration not stated)"
discrete_label = "Not satisfied"

[[record]]
compound = "O=C1NC(C2CC=CCC2)Nc2ccccc21 (configuration not stated)"
discrete_label = "Satisfied"

[[record]]
compound = "O=C1NC(c2ccc(Br)cc2)Nc2ccccc21 (configuration not stated)"
discrete_label = "Satisfied"

[[record]]
compound = "O=C1NC(c2cccc3ccccc23)Nc2ccccc21 (configuration not stated)"
discrete_label = "Satisfied"

